target: human TLR7 (Homo sapiens (Human)); test: TLR7 inhibition reporter assay (HEK-Blue cells, SEAP reporter, gardiquimod stimulation); assay type: cell-based; details: HEK-Blue cells overexpressing human TLR7, gardiquimod 7.5 μM
Sequence (Q9NYK1 27-1049): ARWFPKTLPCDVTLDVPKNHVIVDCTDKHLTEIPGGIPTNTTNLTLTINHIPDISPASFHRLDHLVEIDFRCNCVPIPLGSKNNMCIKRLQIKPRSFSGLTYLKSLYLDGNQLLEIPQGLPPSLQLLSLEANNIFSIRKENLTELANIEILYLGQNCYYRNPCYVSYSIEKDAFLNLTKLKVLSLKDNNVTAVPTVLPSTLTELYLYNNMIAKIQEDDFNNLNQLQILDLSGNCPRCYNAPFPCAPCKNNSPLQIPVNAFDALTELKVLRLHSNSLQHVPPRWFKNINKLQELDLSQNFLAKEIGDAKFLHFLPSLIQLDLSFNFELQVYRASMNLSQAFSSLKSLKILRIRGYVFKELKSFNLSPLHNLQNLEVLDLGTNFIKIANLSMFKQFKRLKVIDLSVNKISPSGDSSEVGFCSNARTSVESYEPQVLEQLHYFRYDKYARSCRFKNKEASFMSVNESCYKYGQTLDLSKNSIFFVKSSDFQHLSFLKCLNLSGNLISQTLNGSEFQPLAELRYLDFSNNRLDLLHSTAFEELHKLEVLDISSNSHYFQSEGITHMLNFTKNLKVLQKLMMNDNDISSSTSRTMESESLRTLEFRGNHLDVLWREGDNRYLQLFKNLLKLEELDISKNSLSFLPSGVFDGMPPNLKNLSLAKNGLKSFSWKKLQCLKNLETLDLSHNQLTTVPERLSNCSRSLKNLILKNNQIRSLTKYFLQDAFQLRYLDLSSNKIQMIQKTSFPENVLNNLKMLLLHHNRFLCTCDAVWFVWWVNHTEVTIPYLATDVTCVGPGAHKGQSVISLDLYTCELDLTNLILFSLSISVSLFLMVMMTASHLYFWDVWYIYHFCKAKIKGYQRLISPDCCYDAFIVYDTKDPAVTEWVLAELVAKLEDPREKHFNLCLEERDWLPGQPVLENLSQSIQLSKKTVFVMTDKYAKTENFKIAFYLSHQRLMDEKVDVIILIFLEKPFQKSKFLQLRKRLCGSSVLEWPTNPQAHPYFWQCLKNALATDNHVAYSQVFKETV
Some compounds, each annotated with its measured log10 IC50.
Would you kindly interpret these values as log10 of IC50 expressed in µM?

See these solved cases before continuing.
{"columns": ["Compound", "log10 IC50"],
 "data": [
  ["Cc1cc(-c2[nH]c3ccc(C4CCN(S(=O)(=O)Cc5ccccc5)CC4)cc3c2C(C)C)ccn1", -0.66],
  ["Cc1cc(-c2[nH]c3ccc(C4CCNCC4(F)F)cc3c2C(C)C)cc(C)n1 (single isomer, unassigned) [Example 489B]", -2.89],
  ["Cc1cc(-c2[nH]c3ccc(C4CCN(Cc5nncn5C)CC4)cc3c2C(C)C)cc(C)n1", -2.20],
  ["Cc1cc(-c2[nH]c3ccc(C4CCN(Cc5ccn(C)n5)CC4)cc3c2C(C)C)c(F)cn1", -1.99]
]}

Bench note, human TLR7 (Homo sapiens (Human)): entry `Cc1cc(-c2[nH]c3ccc(C4CCN(CC(=O)N(CCO)Cc5ccc(F)cc5)CC4)cc3c2C(C)C)cc(C)n1` , its log10 IC50 = -1.54

Bench note, human TLR7 (Homo sapiens (Human)): entry `Cc1cc(-c2[nH]c3ccc(C4CCN(C(CF)CF)CC4)cc3c2C(C)C)cc(C)n1` , its log10 IC50 = -2.00

Bench note, human TLR7 (Homo sapiens (Human)): entry `Cc1cc(-c2[nH]c3ccc(C4CCN(C(=O)CN(C)CC#N)CC4)cc3c2C(C)C)cc(C)n1` , its log10 IC50 = -2.55

* * *

Some compounds, each annotated with its measured log10 IC50.
target: human TLR8 (Homo sapiens (Human), UniProt Q9NR97); assay: TLR8 inhibition reporter assay (HEK-Blue cells, SEAP reporter, R848 stimulation); conditions: read-out: TLR8 IC50, HEK-Blue cells overexpressing human TLR8, R848 15.9 μM;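 further: compounds tested from 0.05 nM to 50 µM, 22 h at 37 °C, SEAP measured with HEK-Blue Detection, inhibition relative to agonist plus DMSO versus a known inhibitor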
Sequence (Q9NR97 27-1041): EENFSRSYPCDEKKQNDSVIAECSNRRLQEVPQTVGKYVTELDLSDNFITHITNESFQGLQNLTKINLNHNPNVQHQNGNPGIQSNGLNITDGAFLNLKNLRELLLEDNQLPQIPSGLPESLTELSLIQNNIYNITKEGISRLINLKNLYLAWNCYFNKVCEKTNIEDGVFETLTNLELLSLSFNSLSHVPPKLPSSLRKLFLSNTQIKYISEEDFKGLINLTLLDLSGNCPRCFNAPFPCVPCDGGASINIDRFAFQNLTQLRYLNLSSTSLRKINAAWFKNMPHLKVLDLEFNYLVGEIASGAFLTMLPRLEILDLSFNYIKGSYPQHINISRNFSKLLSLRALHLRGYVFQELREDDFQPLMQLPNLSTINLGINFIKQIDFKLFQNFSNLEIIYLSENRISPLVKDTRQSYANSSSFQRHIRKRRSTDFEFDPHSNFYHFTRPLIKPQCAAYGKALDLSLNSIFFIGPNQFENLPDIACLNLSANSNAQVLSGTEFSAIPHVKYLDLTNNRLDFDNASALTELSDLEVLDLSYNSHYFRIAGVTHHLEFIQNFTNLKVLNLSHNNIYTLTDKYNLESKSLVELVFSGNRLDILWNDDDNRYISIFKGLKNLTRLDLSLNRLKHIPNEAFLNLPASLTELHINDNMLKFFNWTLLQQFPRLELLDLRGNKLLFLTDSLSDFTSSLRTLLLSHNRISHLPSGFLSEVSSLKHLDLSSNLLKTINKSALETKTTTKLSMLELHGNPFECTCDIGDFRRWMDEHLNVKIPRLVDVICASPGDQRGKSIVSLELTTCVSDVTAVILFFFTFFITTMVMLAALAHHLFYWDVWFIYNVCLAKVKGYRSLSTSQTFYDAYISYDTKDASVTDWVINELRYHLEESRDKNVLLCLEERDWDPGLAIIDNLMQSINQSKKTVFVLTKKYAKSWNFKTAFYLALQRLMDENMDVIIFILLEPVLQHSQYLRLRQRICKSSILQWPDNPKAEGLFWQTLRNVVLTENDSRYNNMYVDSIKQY
Would you kindly interpret these values as log10 of IC50 expressed in nM?

See these solved cases before continuing.
{"columns": ["Compound", "Value Measured"],
 "data": [
  ["CNC(=O)CN1CCC(c2ccc3[nH]c(-c4cc(C)nc(C)c4)c(C(C)C)c3c2)CC1", 0.74],
  ["Cc1cc(-c2[nH]c3ccc(C4CCN(C5CC(C)OC(C)C5)CC4)cc3c2C(C)C)cc(C)n1 (stereo not shown) [Example 454]", 1.01],
  ["Cc1cc(-c2[nH]c3ccc(C4CCN(CC(O)C(F)(F)F)CC4)cc3c2C(C)C)cc(C)n1 (stereo not shown) [Example 317]", 1.12],
  ["Cc1cc(-c2[nH]c3ccc(C4CCN(CC(O)C(F)(F)F)CC4)cc3c2C(C)C)cc(C)n1 (stereo not shown) [Example 316]", 0.36]
]}

// sample Cc1cc(-c2[nH]c3ccc(C4CCNCC4)cc3c2C(C)C(F)(F)F)cc(C)n1 (stereo not shown) , its log10 IC50 was 0.72

// sample CCc1c(-c2ccnc(OC)c2)[nH]c2ccc(C3CCN(C4C[C@H]5CC[C@@H](C4)N5C)CC3)cc12 (stereo partly shown) , its log10 IC50 was 2.20

// sample `CCCCN(CCO)C(=O)CN1CCC(c2ccc3[nH]c(-c4cc(C)nc(C)c4)c(C(C)C)c3c2)CC1` , its log10 IC50 was 2.00

// sample `CNCC(=O)N1CCC(c2ccc3[nH]c(-c4cc(C)nc(C)c4)c(CC(F)F)c3c2)CC1` , its log10 IC50 was 1.94

// sample `CCc1c(-c2ccnc(C)c2)[nH]c2ccc(C3CCN(C(=O)c4ccnc(F)c4)CC3)cc12` , its log10 IC50 was 2.37

// sample `Cc1cc(-c2[nH]c3ccc(C4CCN(CC(=O)N[C@H](C)C(F)(F)F)CC4)cc3c2C(C)C)cc(C)n1` , its log10 IC50 was 1.39

// sample `Cc1cc(-c2[nH]c3ccc(C4CCN(Cc5nncn5C)CC4)cc3c2C(C)C)c(F)cn1` , its log10 IC50 was 0.71

// sample `Cc1cc(-c2[nH]c3ccc(C4CCN(Cc5ccccn5)CC4)cc3c2C(C)C)cc(C)n1` , its log10 IC50 was 0.83

// sample Cc1cc(-c2[nH]c3ccc(C4CCN(CC(O)C(F)(F)F)CC4)cc3c2C(C)C)cc(C)n1 (stereo not shown) [Example 313] , its log10 IC50 was 0.80

// sample `Cc1cc(-c2[nH]c3ccc(C4CCN(C(=O)CN5C[C@@H](O)CC5=O)CC4)cc3c2C(C)C)cc(C)n1` , its log10 IC50 was 1.87

// sample `CNCC(=O)N1CCC(c2ccc3[nH]c(-c4cc(C5CC5)ncc4F)c(C(C)C)c3c2)CC1` , its log10 IC50 was 2.41

// sample Cc1cc(-c2[nH]c3ccc(C4CCN(CC(=O)NC5CCCOC5)CC4)cc3c2C(C)C)cc(C)n1 (stereo not shown) , its log10 IC50 was 1.04

// sample `Cc1cc(-c2[nH]c3ccc(C4CCN(C(=O)Cn5nnc(N6CCOCC6)n5)CC4)cc3c2C(C)C)cc(C)n1` , its log10 IC50 was 2.16

// sample `CC(C)c1c(-c2ccnc(C(=O)Nc3nccs3)c2)[nH]c2ccc(C3CCNCC3)cc12` , its log10 IC50 was 3.05

// sample `C=C(c1c(-c2cc(C)nc(C)c2)[nH]c2ccc(C3CCNCC3)cc12)C(F)(F)F` , its log10 IC50 was 1.18

// sample `Cc1cc(-c2[nH]c3ccc(C4CCN(C(=O)Cn5ccnn5)CC4)cc3c2C(C)C)cc(C)n1` , its log10 IC50 was 1.93

// sample Cc1cc(-c2[nH]c3ccc(C4CCN(C(=O)c5cccnc5)CC4)cc3c2C(C)C)cc(C)n1 [Example 112] , its log10 IC50 was 2.00

// sample `Cc1cc(-c2[nH]c3ccc(C4CCN(C(=O)c5cccn(C6CC6)c5=O)CC4)cc3c2C(C)C)cc(C)n1` , its log10 IC50 was 2.06

* * *

target: human TLR8 (Homo sapiens (Human)); assay: TLR8 inhibition reporter assay (HEK-Blue cells, SEAP reporter, R848 stimulation); conditions: read-out: TLR8 IC50, HEK-Blue cells overexpressing human TLR8, R848 15.9 μM
Property Measured: pIC50
Bear in mind: pIC50 is minus log10 of a mol/L concentration; give just that figure.

{"columns": ["Compound", "pIC50"],
 "data": [
  ["CCc1c(-c2ccnc(C)c2)[nH]c2ccc(C3CCN(C(=O)CCC4CCNCC4)CC3)cc12", 7.45],
  ["Cc1cc(-c2[nH]c3ccc(C4CCN(C(=O)C5CCNC5)CC4)cc3c2C(C)C)ccn1 (centres unmarked)", 7.73],
  ["Cc1cc(-c2[nH]c3ccc(C4CCN(C(=O)Cc5cc(C)nn5C)CC4)cc3c2C(C)C)cc(C)n1", 6.87],
  ["Cc1cc(-c2[nH]c3ccc(C4CCN(CCCO)CC4)cc3c2C(C)C)cc(C)n1", 8.60],
  ["Cc1cc(-c2[nH]c3ccc(C4CCN(S(=O)(=O)c5ccc(Cl)cc5)CC4)cc3c2C(C)C)ccn1", 5.83],
  ["CCS(=O)(=O)N1CCC(c2ccc3[nH]c(-c4ccnc(C)c4)c(C(C)C)c3c2)CC1", 6.79],
  ["Cc1cc(-c2[nH]c3ccc(C4CCN(CC(=O)N5C[C@@H](C(F)(F)F)C[C@H]5CO)CC4)cc3c2C(C)C)cc(C)n1", 6.91]
]}

// switching to the query compound
Bench note, human TLR8 (Homo sapiens (Human)): entry `Cc1cc(-c2[nH]c3ccc(C4CCN(C(=O)C(C)C)CC4)cc3c2C(C)C)cc(C)n1` , its pIC50 = 6.49

* * *

biological target: UniProt:Q9NR96; assay: TLR9 inhibition reporter assay (HEK-Blue cells, SEAP reporter, ODN2006 stimulation); conditions: read-out: TLR9 IC50, HEK-Blue cells overexpressing human TLR9, ODN2006 5 nM;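 further: compounds tested over 0.05 nM to 50 µM, 22 h incubation, inhibition taken as SEAP signal drop from agonist plus DMSO wells toward a known inhibitor control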
Sequence (Q9NR96 26-1032): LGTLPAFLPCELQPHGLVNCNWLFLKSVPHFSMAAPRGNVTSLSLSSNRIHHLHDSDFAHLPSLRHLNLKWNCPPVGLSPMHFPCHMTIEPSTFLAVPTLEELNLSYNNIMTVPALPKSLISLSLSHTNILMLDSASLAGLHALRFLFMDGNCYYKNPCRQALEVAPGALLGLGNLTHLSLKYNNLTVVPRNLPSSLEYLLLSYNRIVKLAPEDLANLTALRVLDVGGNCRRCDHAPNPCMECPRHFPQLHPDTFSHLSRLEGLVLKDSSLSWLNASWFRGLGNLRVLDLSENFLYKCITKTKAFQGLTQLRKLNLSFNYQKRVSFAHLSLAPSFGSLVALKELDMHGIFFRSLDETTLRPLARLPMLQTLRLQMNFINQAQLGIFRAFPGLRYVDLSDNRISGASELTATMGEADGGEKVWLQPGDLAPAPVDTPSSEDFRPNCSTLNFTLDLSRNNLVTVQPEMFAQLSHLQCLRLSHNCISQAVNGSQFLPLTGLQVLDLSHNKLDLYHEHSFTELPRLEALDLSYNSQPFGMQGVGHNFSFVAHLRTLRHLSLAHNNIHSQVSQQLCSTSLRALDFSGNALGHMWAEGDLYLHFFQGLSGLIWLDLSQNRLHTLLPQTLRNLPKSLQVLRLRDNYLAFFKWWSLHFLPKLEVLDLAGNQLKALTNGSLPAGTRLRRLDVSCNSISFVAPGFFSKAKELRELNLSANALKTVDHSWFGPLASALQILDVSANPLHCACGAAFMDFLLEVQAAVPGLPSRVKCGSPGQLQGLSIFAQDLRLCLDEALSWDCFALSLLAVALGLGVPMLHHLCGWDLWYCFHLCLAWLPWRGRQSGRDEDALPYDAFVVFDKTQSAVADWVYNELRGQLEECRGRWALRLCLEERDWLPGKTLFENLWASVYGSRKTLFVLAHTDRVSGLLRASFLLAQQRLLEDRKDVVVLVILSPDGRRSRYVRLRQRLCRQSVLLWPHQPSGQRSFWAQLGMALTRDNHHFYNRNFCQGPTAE
Property Measured: pIC50
Bear in mind: pIC50 is minus log10 of a mol/L concentration; give just that figure.

See these solved cases before continuing.
{"columns": ["Molecule", "Property Measured", "Value Measured"],
 "data": [
  ["COCCNC(=O)CN1CCC(c2ccc3[nH]c(-c4cc(C)nc(C)c4)c(C(C)C)c3c2)CC1", "pIC50", 5.95],
  ["FC(F)Cc1c(-c2ccnc(Cl)c2)[nH]c2ccc(C3CCNCC3)cc12", "pIC50", 5.69],
  ["CC(=O)N(C)CCC(=O)N1CCC(c2ccc3[nH]c(-c4cc(C)nc(C)c4)c(C(C)C)c3c2)CC1", "pIC50", 4.46],
  ["Cc1cc(-c2[nH]c3ccc(C4CCN(C(=O)CN5CC(F)(F)C5)CC4)cc3c2C(C)C)cc(C)n1", "pIC50", 4.44],
  ["Cc1cc(-c2[nH]c3ccc(C4CCN(C(=O)CN(C)C)CC4)cc3c2C(C)C)c(C)cn1", "pIC50", 5.78]
]}

// sample Cc1cc(-c2[nH]c3ccc(C4CCN(C5CC(C)OC6(CC6)C5)CC4)cc3c2C(C)C)cc(C)n1 (stereo not shown) , its pIC50 was 6.47
